- Test system: primary murine skeletal myocytes
- Method Description: TAG accumulation in primary murine skeletal myocytes
- Format: cell-based
- Condition Summary: Mus musculus; primary murine skeletal myocytes; read-out: Activity Score (IC50), triacylglyceride (TAG) accumulation
pIC50: −log10 of the molar value.
Reported Property: pIC50

- COc1cc(C(=O)Nc2nc(Cc3ccccc3)cs2)ccc1OCC(=O)N1CCOCC1 [Cpd. 85]: 5.00 to 6.00
- COc1cc(C(=O)Nc2nc(-c3ccc4c(c3)OCO4)cs2)ccc1OCC(=O)N1CCOCC1 [Cpd. 39]: 5.00 to 6.00
- COc1cc(C(=O)Nc2nc(-c3ccc(Cl)cc3)cs2)ccc1OCC(=O)N1CCOCC1 [Cpd. 31]: > 6.00
- COc1ccc(-c2csc(NC(=O)c3ccc(NCC(=O)N4CCOCC4)cc3)n2)cc1 [Cpd. 66]: > 6.00
- COc1ccc(-c2csc(NC(=O)c3ccc(OCC(=O)N4CCOCC4)cc3)n2)cc1 [Cpd. 41]: > 6.00
- COc1ccc2nc(NC(=O)c3ccc(OCC(=O)N4CCOCC4)cc3)sc2c1 [Cpd. 88]: 5.00 to 6.00
- COc1ccc(-c2csc(NC(=O)c3cccc(OCC(=O)N4CCOCC4)c3)n2)cc1 [Cpd. 94]: 5.00 to 6.00
- COc1ccc(-c2csc(NC(=O)c3ccc(OCC(=O)N4CCCCC4)c(OC)c3)n2)cc1 [Cpd. 8]: 5.00 to 6.00
- COc1ccc(Cc2cnc(NC(=O)c3ccc(OCC(=O)N4CCOCC4)c(OC)c3)s2)cc1 [Cpd. 98]: 5.00 to 6.00
- COc1ccc(-c2csc(NC(=O)c3ccc(OCC(=O)N4CCSCC4)c(OC)c3)n2)cc1 [Cpd. 11]: > 6.00
- COc1ccc(-c2csc(NC(=O)CCC(=O)N3CCOc4ccccc43)n2)cc1 [Cpd. 81]: > 6.00
- COCCNC(=O)CNc1ccc(C(=O)Nc2nc(-c3ccc(OC)cc3Cl)cs2)cc1 [compound 73]: > 6.00
- COc1cc(C(=O)Nc2nc(-c3ccc(C)cc3)cs2)ccc1O [Cpd. 3]: < 5.00
- O=C(Nc1nc(-c2cccc(Cl)c2)cs1)c1ccc(OCC(=O)N2CCOCC2)cc1 [Cpd. 52]: > 6.00
- COc1ccc(-c2csc(NC(=O)c3ccc(OCC(=O)N4CCOCC4)c(OC)c3)n2)cc1OC [Cpd. 38]: 5.00 to 6.00
- COc1cc(C(=O)Nc2ncc(Cc3cccc(C(F)(F)F)c3)s2)ccc1OCC(=O)N1CCOCC1 [Cpd. 100]: < 5.00
- COc1cc(C(=O)Nc2nc(-c3ccc(C)cc3)cs2)ccc1OCC(=O)N1CCOCC1 [Cpd. 30]: > 6.00

====

Reported IC50 values for a set of compounds
- System: primary murine skeletal myocytes
- Method Description: TAG accumulation in primary murine skeletal myocytes
- Assay type: cell-based
- Condition Summary: Mus musculus; primary murine skeletal myocytes; read-out: Activity Score (IC50), triacylglyceride (TAG) accumulation
Reported Property: IC50

* COc1cc(C(=O)Nc2nc(-c3ccc(Cl)c(Cl)c3)cs2)ccc1OCC(=O)N1CCOCC1 | < 1 µM
* COc1ccc(-c2csc(NC(=O)c3ccc(OCC(=O)N4CCN(S(C)(=O)=O)CC4)c(OC)c3)n2)cc1 | > 10 µM
* COCCNC(=O)COc1ccc(C(=O)Nc2nc(-c3ccc(OC)cc3)cs2)cc1OC | 1 to 10 µM
* COc1cc(C(=O)Nc2nc(-c3ccc([N+](=O)[O-])cc3)cs2)ccc1OCC(=O)N1CCOCC1 | < 1 µM
* COc1ccc(-c2csc(NC(=O)c3ccc(OCC(=O)NCc4ccccn4)c(OC)c3)n2)cc1 | > 10 µM
* COCCOc1ccc(-c2csc(NC(=O)c3ccc(OCC(=O)N4CCOCC4)cc3)n2)cc1 | < 1 µM
* COc1cc(C(=O)Nc2ncc(-c3ccccc3)s2)ccc1OCC(=O)N1CCOCC1 | > 10 µM
* COCCNC(=O)CNc1ccc(C(=O)Nc2nc(-c3ccc(OC)cc3)cs2)cc1 | > 10 µM
* COc1ccc(-c2csc(NC(=O)c3ccc(O)c(OC)c3)n2)cc1 | > 10 µM
* O=C(Nc1nc(-c2ccc(OC(F)F)cc2)cs1)c1ccc(OCC(=O)N2CCOCC2)cc1 | < 1 µM
* COc1cc(C(=O)Nc2nc(-c3ccc(OC(C)C)cc3)cs2)ccc1OCC(=O)N1CCOCC1 | < 1 µM
* O=C(Nc1nc(-c2cccc(F)c2)cs1)c1ccc(OCC(=O)N2CCOCC2)cc1 | < 1 µM
* COCCCNC(=O)COc1ccc(C(=O)Nc2nc(-c3ccc(OC)cc3)cs2)cc1OC | 1 to 10 µM
* COc1ccc(-c2csc(NC(=O)c3ccc(OCC(=O)NC4CCC4)c(OC)c3)n2)cc1 | < 1 µM
* CNC(=O)CNc1ccc(C(=O)Nc2nc(-c3ccc(OC)cc3)cs2)cc1 | < 1 µM
* COc1ccc(-c2csc(NC(=O)c3ccc(OCC(N)=O)cc3)n2)c(Cl)c1 | 1 to 10 µM
* COc1cccc(-c2csc(NC(=O)c3cccc(OCC(=O)N4CCOCC4)c3)n2)c1 | 1 to 10 µM
